Reported Ki, 5-hydroxytryptamine receptor 7 (Rattus norvegicus, UniProt P32305).
Field format: number, assumed nM, no unit text.

Guide cases for Ki, answers given:
c1cc2c(c(NC3=NCCN3)c1)CCCC2 : 290
CC(COc1ccccc1)N(CCCl)Cc1ccccc1 (stereo not drawn) : 0.9

Give the measured Ki of c1ccc2c(CC3=NCCN3)cccc2c1 [Naphazoline] .
43
